Ref: PubChem BioAssay AID1259343

inhibition overview
- assay.remarks: Mycobacterium tuberculosis growth inhibition, primary screen (AID 1259343)
- assay.conditions: at 10 µM, hits give high values
Among all 6,200 compounds or so, about 2,900 (47%) were called active. So high a share suggests a set chosen from earlier hits. The list shows a part of the results.

molecule | inhibition / %
CN(C)c1cccc(Nc2nccc3c2cc(-c2ccsc2)n3C)c1 | 63.8
O=C(NCCc1ccco1)c1ccc(Br)cc1F | 5.5
CN(C)c1cccc(Nc2nccc3c2cc(-c2ccccc2)n3C)c1 | 74.6
OCC1(Cc2ccccc2F)CCCN(Cc2nc(-c3ccccc3)cs2)C1 (stereo unspecified) | 13.4
OC(CN1CCCC1)Cn1c2ccc(Cl)cc2c2cc(Cl)ccc21 (stereo unspecified) | -9.02
O=C(NCCc1ccco1)c1ccc(C2SCCS2)cc1 | 77.9
Cc1nn(CC(O)Cn2c(C)c(C)c3cccc(Cl)c32)c(C)c1Br (stereo unspecified) | 25.1
O=S(=O)(Cc1ccccc1)c1nnnn1-c1ccccc1 | 101
CCOC(=O)c1c(NC(=O)c2c(F)c(F)c(F)c(F)c2F)sc2c1CCN(c1ccc(Cl)nc1)C2 | 61.8
C(=C\c1cccc(N2CCNCC2)c1)/c1ccccc1 | 90.8
C[n+]1c2cc(N)ccc2cc2ccc(N)cc21 | 92
